Origin of values: ChEMBL document CHEMBL1128545

assay: Hill coefficient of the compound

>  <molecule>
CC[C@H](C)c1cc(OC)c(CC(C)N)cc1OC (some centres undefined)

>  <Hill coefficient>
1.06

$$$$
>  <molecule>
COc1cc(CC(C)N)c(OC)cc1C (centres undefined) [DOM]

>  <Hill coefficient>
0.89

$$$$
>  <molecule>
CCN(CC)C(=O)[C@@H]1C=C2c3cccc4[nH]cc(c34)C[C@H]2N(C)C1 [LYSERGIDE]

>  <Hill coefficient>
1.18

$$$$
>  <molecule>
CC[C@@H](C)c1cc(OC)c(CC(C)N)cc1OC (some centres undefined)

>  <Hill coefficient>
1

$$$$

###

organism: Rattus norvegicus; assay: Potency against LSD trained rat, activity is expressed as ED50; assay type: functional

>  <molecule>
CC[C@@H](C)c1cc(OC)c(CC(C)N)cc1OC (stereo not given in full)

>  <ED50 [µmol/kg]>
3.08

$$$$
>  <molecule>
CCN(CC)C(=O)[C@@H]1C=C2c3cccc4[nH]cc(c34)C[C@H]2N(C)C1 [LYSERGIDE]

>  <ED50 [µmol/kg]>
0.02

$$$$
>  <molecule>
CCC(C)c1cc(OC)c(CC(C)N)cc1OC (stereo not given)

>  <ED50 [µmol/kg]>
3.69

$$$$
>  <molecule>
COc1cc(CC(C)N)c(OC)cc1C (stereo not given)

>  <ED50 [µmol/kg]>
0.61

$$$$
>  <molecule>
CC[C@H](C)c1cc(OC)c(CC(C)N)cc1OC (stereo not given in full)

>  <ED50 [µmol/kg]>
4.76

$$$$
